# Test system: PF3D7_0420300 AP2 domain 1 (GST-tagged)
# Assay explanation: gcPBM binding intensity (ln(normalized median fluorescence intensity)); higher = stronger DNA binding
The full ranking holds about 25,000 sequences; the median of “ln(normalized median fluorescence intensity)” is about 9.3, and the highest 2% start at about 10. Shown is part of a subset that was picked to be rich in the highest values.
Label True when gcPBM binding intensity (ln) is at or above 10; anything below gets False.

Solved entries:
Q: Would you say AAAAAAATTGGGAAAAGTACTTGCAGCTAGCTAAAA [XGTACX_site5178] shows gcPBM binding intensity (ln) at minimum 10?
A: False

Q: Would you say TTAATTATAATTATATGTACGAACTTTTTTTTTTTT [XGTACX_site6586] shows gcPBM binding intensity (ln) at minimum 10?
A: False

Lab note: next sequence to report on.
Q: Would you say ATATATGTAATAAATAGTACACACACACATATATAT [XGTACX_site2817] shows gcPBM binding intensity (ln) at minimum 10?
A: True

---

# Tested on: PF3D7_0420300 AP2 domain 1 (GST-tagged)
# Assay explanation: gcPBM binding intensity (ln(normalized median fluorescence intensity)); higher = stronger DNA binding
In all, about 25,000 sequences were measured (“ln(normalized median fluorescence intensity)”: median about 9.3, highest 2% from about 10 on). The list comes from a sample in which the highest values are over-represented; it also holds close analogues and randomly drawn sequences.
For each of the sequences below, state its gcPBM binding intensity (ln).
Give bare numbers.

Measured gcPBM binding intensity (ln), TATATATATATTTATACACACACATATATTTATATA [CACACA_site8054] : 9.59

Measured gcPBM binding intensity (ln), AAAAAAAAAAAAAACACACACACACCCAAATATATA [CACACA_site1169] : 10.1

Measured gcPBM binding intensity (ln), ATATTATTTTAAAGTACACACATATATTGATATATA [CACACA_site7153] : 9.39

Working through the 3 sequences below one at a time, give gcPBM binding intensity (ln) for each.
1. TAGTATAATATGAACACACACACACCCACAAAAAAA [CACACA_site2009]
2. TACATATTTATATACACACACACACGGATATTTATA [CACACA_site7239]
3. TTAAAATATACATAAACACACACAAAACGTTTAAGA [CACACA_site8267]

A:
10
10.3
9.9

Working through the 3 sequences below one at a time, give gcPBM binding intensity (ln) for each.
1. ATAATATGAAAACACACACACACACCCAAAAAAAAA [CACACA_site2011]
2. GTATAATATGAACACACACACACACCCAAAAAAAAA [CACACA_site5152]
3. ATAATTTAAAAACATTGTACATTAATATATATGTAT [XGTACX_site8970]

A:
10.2
10.2
9.12

---

# Tested on: PF3D7_0420300 AP2 domain 1 (GST-tagged)
# Assay explanation: gcPBM binding intensity (ln(normalized median fluorescence intensity)); higher = stronger DNA binding
In all, about 25,000 sequences were measured (“ln(normalized median fluorescence intensity)”: median about 9.3, highest 2% from about 10 on). The list comes from a sample in which the highest values are over-represented; it also holds close analogues and randomly drawn sequences.
Recorded endpoint: gcPBM binding intensity (ln)
Numbers only.

Measured gcPBM binding intensity (ln), TATAGAAGCGTTCACACACACACATACATACCCATA [CACACA_site4915] : 10.3

Measured gcPBM binding intensity (ln), TATACATATACATATACACACACACCCATAAATAAA [CACACA_site8372] : 9.99

Measured gcPBM binding intensity (ln), GTTATAGAAGCATTCACACACACACGGACATACACA [CACACA_site6801] : 10.1

Measured gcPBM binding intensity (ln), TATATATATATATAAACACACATAAATATAAATATA [CACACA_site1121] : 9.6

Measured gcPBM binding intensity (ln), CAAAAATAAAAGAAATGTACAAAAAATAATAAAAAA [XGTACX_site6597] : 9.43

Working through the 3 sequences below one at a time, give gcPBM binding intensity (ln) for each.
1. GTTATAGAAGCATTCACACACACACCCACATACACA [CACACA_site1465]
2. TTATTAACCTAAATTAGTACATATAATATAAAAAAT [XGTACX_site8661]
3. TGAATTCGTCAAAAGCGTACATATAATATCTTCTTG [XGTACX_site8842]

A:
1: 10.1; 2: 9.18; 3: 9.19

Working through the 5 sequences below one at a time, give gcPBM binding intensity (ln) for each.
1. ATGCTATATTAAAAACGTACAAACTGTTTAGAAAAA [XGTACX_site8943]
2. TATAGAAGCATTCACACACACACATACATACACATA [CACACA_site1466]
3. TACTAGCAAATACATACACACACACCCATATACATA [CACACA_site9163]
4. GGTGTATGTTAAAGGAGTACATATATATATATATAT [XGTACX_site7727]
5. TTAATGGCAAAATAGGCACACACACCGATACATATA [CACACA_site8263]

A:
1. 9.12
2. 10.2
3. 10.1
4. 9.3
5. 9.91
